Give measured Response for each item. Keep answers brief.
- tested system: Beta-3 adrenergic receptor (Rattus norvegicus) (UniProt P26255)
- Sequence (P26255 whole entry): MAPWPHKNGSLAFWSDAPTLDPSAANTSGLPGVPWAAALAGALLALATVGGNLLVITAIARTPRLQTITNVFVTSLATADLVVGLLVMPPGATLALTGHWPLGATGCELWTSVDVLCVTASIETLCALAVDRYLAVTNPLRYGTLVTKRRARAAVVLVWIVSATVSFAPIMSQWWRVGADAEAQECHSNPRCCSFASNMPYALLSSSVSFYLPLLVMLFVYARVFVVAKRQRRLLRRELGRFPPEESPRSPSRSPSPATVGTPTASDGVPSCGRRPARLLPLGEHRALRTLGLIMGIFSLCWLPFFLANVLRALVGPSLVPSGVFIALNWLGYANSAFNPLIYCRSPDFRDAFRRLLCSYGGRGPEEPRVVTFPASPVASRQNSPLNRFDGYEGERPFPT
- test summary: Beta-3-adrenergic activity measured by percent response against free fatty acid (FFA) in rat plasma at a dosage of 0.1 mg/kg
- Assay type: functional, organism-based
- Design: dose 0.1 mg/kg
One number for each entry, in %.

Here are 2 compounds. What values of Response were reported for them?
1. COCCOCCOC(=O)C1(C(=O)OCCOCCOC)Oc2ccc(C[C@@H](C)NC[C@H](O)c3cccc(Cl)c3)cc2O1
2. CC(OC(=O)C1(C(=O)OC(C)c2ccccc2)Oc2ccc(C[C@@H](C)NC[C@H](O)c3cccc(Cl)c3)cc2O1)c1ccccc1 (some centres undefined)

Reply:
1: 71; 2: 78

Here are 2 compounds. What values of Response were reported for them?
1. C[C@H](Cc1ccc2c(c1)OC(C(=O)OCCCOCc1ccccc1)(C(=O)OCCCOCc1ccccc1)O2)NC[C@H](O)c1cccc(Cl)c1
2. CC(C)CCOC(=O)C1(C(=O)O)Oc2ccc(C[C@@H](C)NC[C@H](O)c3cccc(Cl)c3)cc2O1 (some centres undefined)

Reply:
83
42

---

Give measured Response for each item. Keep answers brief.
- tested system: Beta-3 adrenergic receptor (Rattus norvegicus) (UniProt P26255)
- test summary: Beta-3-adrenergic activity measured by percent response against free fatty acid (FFA) in rat plasma at a dosage of 0.1 mg/kg
- Type: functional, organism-based
- Design: dose 0.1 mg/kg
Answers are plain numbers, in %.

Recorded results for 3 compounds are shown here.
compound	tested system	measured attribute	data value
C[C@H](Cc1ccc2c(c1)OC(C(=O)O)(C(=O)OCCC1CC1)O2)NC[C@H](O)c1cccc(Cl)c1 (stereo partly specified)	Beta-3 adrenergic receptor (Rattus norvegicus) (UniProt P26255)	Response	19
C[C@H](Cc1ccc2c(c1)OC(C(=O)OCC1CCCCO1)(C(=O)OCC1CCCCO1)O2)NC[C@H](O)c1cccc(Cl)c1 (stereo partly specified)	Beta-3 adrenergic receptor (Rattus norvegicus) (UniProt P26255)	Response	11
CCOCCOC(=O)C1(C(=O)OCCOCC)Oc2ccc(C[C@@H](C)NC[C@H](O)c3cccc(Cl)c3)cc2O1	Beta-3 adrenergic receptor (Rattus norvegicus) (UniProt P26255)	Response	101

Here are 5 compounds. What values of Response were reported for them?
1. C[C@H](Cc1ccc2c(c1)OC(C(=O)OCC(=O)c1ccccc1)(C(=O)OCC(=O)c1ccccc1)O2)NC[C@H](O)c1cccc(Cl)c1
2. C[C@H](Cc1ccc2c(c1)OC(C(=O)OCC(C)(C)Cc1ccccc1)(C(=O)OCC(C)(C)Cc1ccccc1)O2)NC[C@H](O)c1cccc(Cl)c1
3. C[C@H](Cc1ccc2c(c1)OC(C(=O)OCCOc1ccccc1)(C(=O)OCCOc1ccccc1)O2)NC[C@H](O)c1cccc(Cl)c1
4. CCOC(=O)C(C)OC(=O)C1(C(=O)OC(C)C(=O)OCC)Oc2ccc(C[C@@H](C)NC[C@H](O)c3cccc(Cl)c3)cc2O1 (stereo partly specified)
5. CCCC(=O)OCOC(=O)C1(C(=O)OCOC(=O)CCC)Oc2ccc(C[C@@H](C)NC[C@H](O)c3cccc(Cl)c3)cc2O1

Reply:
[7, 25, 2, 9, 24]

---

- tested system: Beta-3 adrenergic receptor (Rattus norvegicus) (UniProt P26255)
- test summary: Beta-3-adrenergic activity measured by percent response against free fatty acid (FFA) in rat plasma at a dosage of 0.1 mg/kg
- Assay type: functional, organism-based
- Set-up: dose 0.1 mg/kg
Give measured Response for each item. Keep answers brief.
Answers are plain numbers, in %.

Recorded results for 3 molecules are shown here.
molecule	unit name	Response
CCC(CC)OC(=O)C1(C(=O)OC(CC)CC)Oc2ccc(C[C@@H](C)NC[C@H](O)c3cccc(Cl)c3)cc2O1	%	63
C[C@H](Cc1ccc2c(c1)OC(C(=O)O)(C(=O)OCC1CCC1)O2)NC[C@H](O)c1cccc(Cl)c1 (some centres undefined)	%	39
C[C@H](Cc1ccc2c(c1)OC(C(=O)O)(C(=O)OC[Si](C)(C)C)O2)NC[C@H](O)c1cccc(Cl)c1 (some centres undefined)	%	30

Please find the next molecule below.
Query: Record request: Response value, item C[C@H](Cc1ccc2c(c1)OC(C(=O)O)(C(=O)OCC(C)(C)C)O2)NC[C@H](O)c1cccc(Cl)c1 (some centres undefined)
Reply: 81

Data provenance: ChEMBL document CHEMBL1131783
